# test.target: T1, G288A
# T1 construct: % monomer 95.3; also called MICA*008.mIgG2a G288A
# T1 chain: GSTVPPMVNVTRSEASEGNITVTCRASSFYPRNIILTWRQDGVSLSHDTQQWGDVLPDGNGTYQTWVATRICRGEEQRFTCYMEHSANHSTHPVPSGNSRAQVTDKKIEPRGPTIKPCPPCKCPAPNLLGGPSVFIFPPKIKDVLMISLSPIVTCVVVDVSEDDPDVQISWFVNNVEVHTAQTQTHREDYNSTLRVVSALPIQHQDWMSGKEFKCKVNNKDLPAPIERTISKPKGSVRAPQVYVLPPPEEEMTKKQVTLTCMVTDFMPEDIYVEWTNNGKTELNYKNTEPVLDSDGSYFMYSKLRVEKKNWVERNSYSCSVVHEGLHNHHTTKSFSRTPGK
# measurement.notes: SPR, Fab over captured MICA*008.mIgG2a Ala variant; KD relative to wild type
The reader will find reported fold-decrease in affinity values listed item by item below.
Could you respond with only the numeric value?

• 7D4.6 Fab (Fab, V domains shown) VH: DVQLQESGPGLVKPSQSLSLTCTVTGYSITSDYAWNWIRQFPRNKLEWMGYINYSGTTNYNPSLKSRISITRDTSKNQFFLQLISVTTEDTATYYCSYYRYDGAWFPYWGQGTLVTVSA VL: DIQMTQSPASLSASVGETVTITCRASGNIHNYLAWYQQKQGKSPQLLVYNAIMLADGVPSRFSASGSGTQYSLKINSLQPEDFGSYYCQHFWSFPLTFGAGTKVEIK = 0.8
• 1D5 Fab (Fab, V domains shown, Expressed in E. coli as chimera of murine variable and human constant domains; not shown: human IgG1 CH1 constant domain; human kappa CL constant domain) VH: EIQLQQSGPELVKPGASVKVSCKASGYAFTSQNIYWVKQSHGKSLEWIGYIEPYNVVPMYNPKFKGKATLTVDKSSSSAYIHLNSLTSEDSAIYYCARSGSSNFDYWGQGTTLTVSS VL: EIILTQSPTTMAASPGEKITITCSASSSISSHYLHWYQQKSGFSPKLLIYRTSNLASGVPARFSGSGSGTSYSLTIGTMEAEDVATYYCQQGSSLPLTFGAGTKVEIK = 1

# evaluate next
In: # query: fold-decrease in affinity of entry 2E5.2.3 Fab (Fab, V domains shown) VH: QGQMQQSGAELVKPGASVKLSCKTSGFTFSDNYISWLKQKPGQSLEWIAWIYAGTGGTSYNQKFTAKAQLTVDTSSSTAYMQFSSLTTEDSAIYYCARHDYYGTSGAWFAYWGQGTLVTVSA VL: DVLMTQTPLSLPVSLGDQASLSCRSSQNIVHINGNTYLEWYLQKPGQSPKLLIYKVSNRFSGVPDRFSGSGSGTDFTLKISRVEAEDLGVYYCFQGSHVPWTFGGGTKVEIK
Out: 0.6
